Examples of compounds with documented solubility at 2 h follow.
- assayProtocol: Solubility assay in purified water
- Type: physicochemical
- setupConditions: pH 5.7, thermodynamic from solid; purified water pH=5.6-5.8, stirring 2 h, room temperature, HPLC
Structures can show the parent of a compound that is named as a salt.

// solved cases for solubility at 2 h follow
COc1cccc(CN2CCC(N(C)C(=O)n3cnc(-c4cccc(NC(N)=O)c4)c3)CC2)c1.Cl [Example 17] | 14.1 mg/mL
CN(C(=O)n1cnc(-c2cccc(C(N)=O)c2)c1)C1CCN(c2ccc(O)cc2)CC1 [Example 35, hydrochloride] | 10.2 mg/mL

Determine its reported solubility at 2 h: COc1cccc(CN2CCC(N(C)C(=O)n3cnc(-c4cccc(NS(N)(=O)=O)c4)c3)CC2)c1.CS(=O)(=O)O [Example 23]
> 16 mg/mL

---

Reported CYP+ (% remain) values follow for various molecules
- System: CYPs
- assayProtocol: CYPs metabolic stability assay in HLM (human liver microsomes)
- Type: in vitro ADME
- setupConditions: HLM 1 mg/ml protein, with NADPH 1 mM, compound 5 μM, 60 min, 37° C.
Where a name gives a salt, the structure may show the parent alone.
Remember to quote the unit after the number.

COc1cccc(CN2CCC(N(C)C(=O)n3cnc(-c4cccc(NS(N)(=O)=O)c4)c3)CC2)c1 [Example 3, hydrochloride] | 17.5 % remain
CN(C(=O)n1cnc(-c2ccc(OS(N)(=O)=O)cc2)c1)C1CCN(c2ccc(O)cc2)CC1 [Example 28, hydrochloride] | 66.0 % remain
COc1ccc(CN2CCC(N(C)C(=O)n3cnc(-c4cccc(C(N)=O)c4)c3)CC2)cc1 [Example 33, hydrochloride] | 70.4 % remain
COc1cccc(CN2CCC(N(C)C(=O)n3cnc(-c4cccc(OS(N)(=O)=O)c4)c3)CC2)c1.Cl [Example 11] | 5.9 % remain
COc1cccc(CN2CCC(N(C)C(=O)n3cnc(-c4cccc(C(N)=O)c4)c3)CC2)c1 [Example 13, hydrochloride] | 25.1 % remain
COc1cc(CN2CCC(N(C)C(=O)n3cnc(-c4cccc(OS(N)(=O)=O)c4)c3)CC2)cc(OC)c1.Cl [Example 9] | 62.8 % remain
COc1cccc(CN2CCC(N(C)C(=O)n3cnc(-c4cccc(NS(C)(=O)=O)c4)c3)CC2)c1 [Example 4, hydrochloride] | 11.2 % remain
CN(C(=O)n1cnc(-c2cccc(NS(C)(=O)=O)c2)c1)C1CCN(c2ccc(O)cc2)CC1 [Example 24, hydrochloride] | 76.2 % remain
CN(C(=O)n1cnc(-c2cccc(OS(N)(=O)=O)c2)c1)C1CCN(c2ccc(Br)c(O)c2)CC1 [Example 29, hydrochloride] | 79.5 % remain
COc1ccc(F)c(CN2CCC(N(C)C(=O)n3cnc(-c4cccc(C(N)=O)c4)c3)CC2)c1 [Example 32, hydrochloride] | 14.2 % remain

Determine from records and report CYP+ (% remain) for CN(C(=O)n1cnc(-c2cccc(OS(N)(=O)=O)c2)c1)C1CCN(Cc2ccccc2)CC1 [Example 7, hydrochloride]
65.0 % remain

Given COc1cccc(CN2CCC(N(C)C(=O)n3cnc(-c4ccc(OS(N)(=O)=O)cc4)c3)CC2)c1 [Example 14, hydrochloride] , respond with its CYP+ (% remain).
68.6 % remain

Retrieve CYP+ (% remain) measured for COc1ccc(CN2CCC(N(C)C(=O)n3cnc(-c4cccc(NC(N)=O)c4)c3)CC2)cc1OC [Example 26, hydrochloride] and print it.
81.4 % remain

Return value of CYP+ (% remain) for input COc1cc(CN2CCC(N(C)C(=O)n3cnc(-c4ccc(OS(N)(=O)=O)cc4)c3)CC2)ccc1F [Example 12, oxalate] , no commentary.
7.9 % remain

For the molecule CN(C(=O)n1cnc(-c2cccc(NC(N)=O)c2)c1)C1CCN(c2ccc(O)cc2)CC1 [Example 25, hydrochloride] , give its measured CYP+ (% remain) value.
49.1 % remain

Give a short answer stating reported CYP+ (% remain) for CN(C(=O)n1cnc(-c2cccc(NS(N)(=O)=O)c2)c1)C1CCN(Cc2ccccc2)CC1 [Example 2, hydrochloride] .
68.6 % remain

Retrieve CYP+ (% remain) measured for COc1cc(CN2CCC(N(C)C(=O)n3cnc(-c4cccc(C(N)=O)c4)c3)CC2)ccc1F [Example 31, hydrochloride] and print it.
18.5 % remain

Complete the entry with CYP+ (% remain) for CN(C(=O)n1cnc(-c2cccc(NC(N)=O)c2)c1)C1CCN(Cc2ccc3c(c2)OCO3)CC1.Cl [Example 18]
76.8 % remain

Give reported CYP+ (% remain) value for COc1cc(CN2CCC(N(C)C(=O)n3cnc(-c4cccc(OS(N)(=O)=O)c4)c3)CC2)ccc1F [Example 10, hydrochloride]
5.8 % remain

Specify reported CYP+ (% remain) for the molecule shown: CN(C(=O)n1cnc(-c2cccc(OS(N)(=O)=O)c2)c1)C1CCN(c2ccc(O)cc2)CC1 [Example 15, hydrochloride]
87.1 % remain

Please give the documented CYP+ (% remain) of CN(C(=O)n1cnc(-c2cccc(NS(C)(=O)=O)c2)c1)C1CCN(Cc2ccccc2)CC1 [Example 1, hydrochloride]
30.2 % remain

---

- targetUnderTest: FAAH (Mus musculus, UniProt O08914)
- Sequence (O08914 whole entry): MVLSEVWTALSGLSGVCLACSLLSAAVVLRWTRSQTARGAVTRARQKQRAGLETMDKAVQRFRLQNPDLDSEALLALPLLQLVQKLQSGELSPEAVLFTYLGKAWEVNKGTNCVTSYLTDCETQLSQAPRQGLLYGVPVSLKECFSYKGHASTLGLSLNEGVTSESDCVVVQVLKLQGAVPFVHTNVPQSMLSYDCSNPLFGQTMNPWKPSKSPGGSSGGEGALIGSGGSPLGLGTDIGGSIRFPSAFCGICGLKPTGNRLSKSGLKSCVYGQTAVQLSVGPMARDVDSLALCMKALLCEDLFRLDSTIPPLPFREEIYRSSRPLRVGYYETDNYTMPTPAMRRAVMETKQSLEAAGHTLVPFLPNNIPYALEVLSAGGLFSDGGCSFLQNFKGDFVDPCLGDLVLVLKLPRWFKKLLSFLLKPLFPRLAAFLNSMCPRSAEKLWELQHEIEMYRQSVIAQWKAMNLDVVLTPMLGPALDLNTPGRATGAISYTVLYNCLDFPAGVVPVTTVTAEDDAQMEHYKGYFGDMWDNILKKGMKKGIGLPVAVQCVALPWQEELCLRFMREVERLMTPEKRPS
- assayProtocol: In vitro/ex vivo FAAH activity determination in liver after intra-tracheal instillation
- Parameters: Liver and brain fragments were removed and processed for enzymatic activity determination; from tissue; host or cells: mouse liver fragment homogenate; species or system male NMRI mice
- setupConditions: remaining enzymatic activity vs controls, 1 mg/kg intra-tracheal instillation, sacrificed after 8 h
Structures can show the parent of a compound that is named as a salt.
Each record is given yes (1) if its reported FAAH Activity - Liver itc (% C) is strictly below 3 % C. Records at or above 3 % C are given no (0).

Consider the worked cases shown below.
CN(C(=O)n1cnc(-c2cccc(OS(N)(=O)=O)c2)c1)C1CCN(c2ccccc2)CC1 [Example 6, hydrochloride] | yes (1)
CN(C(=O)n1cnc(-c2ccc(OS(N)(=O)=O)cc2)c1)C1CCN(c2ccc(O)cc2)CC1 [Example 28, hydrochloride] | no (0)
CN(C(=O)n1cnc(-c2cccc(C(N)=O)c2)c1)C1CCN(Cc2ccccc2O)CC1 [Example 36, hydrochloride] | no (0)
COc1cc(CN2CCC(N(C)C(=O)n3cnc(-c4cccc(OS(N)(=O)=O)c4)c3)CC2)cc(OC)c1.Cl | no (0)
CN(C(=O)n1cnc(-c2cccc(OS(N)(=O)=O)c2)c1)C1CCN(Cc2ccccc2)CC1 [Example 7, hydrochloride] | no (0)

Now consider the entry below.
Here's an entry: CN(C(=O)n1cnc(-c2cccc(C(N)=O)c2)c1)C1CCN(c2ccccc2O)CC1 [Example 37, hydrochloride] . Is its FAAH Activity - Liver itc (% C) below 3 % C?
no (0)

---

Measured FAAH Activity - Brain itc (% C) by item
- targetUnderTest: FAAH (Mus musculus)
- assayProtocol: In vitro/ex vivo FAAH activity determination in brain after intra-tracheal instillation
- Design: Liver and brain fragments were removed and processed for enzymatic activity determination; from tissue; species or system male NMRI mice
- setupConditions: remaining enzymatic activity vs controls, 1 mg/kg intra-tracheal instillation, sacrificed after 8 h
Where a name gives a salt, the structure may show the parent alone.
Provide only the numeric value, understood in % C.

Below are worked cases with known answers.
COc1cccc(CN2CCC(N(C)C(=O)n3cnc(-c4cccc(NS(N)(=O)=O)c4)c3)CC2)c1.O=C(O)/C=C\C(=O)O.O=C(O)/C=C\C(=O)O | 86.4
COc1cccc(CN2CCC(N(C)C(=O)n3cnc(-c4cccc(NS(C)(=O)=O)c4)c3)CC2)c1 [Example 4, hydrochloride] | 98.7

Continue with the next molecule.
Would you please give the reported FAAH Activity - Brain itc (% C) of CN(C(=O)n1cnc(-c2ccc(OS(N)(=O)=O)cc2)c1)C1CCN(c2ccc(O)cc2)CC1 [Example 28, hydrochloride] with FAAH (Mus musculus)?
91.0

---

- targetUnderTest: FAAH (Mus musculus)
- assayProtocol: In vitro/ex vivo FAAH activity determination in brain after intra-tracheal instillation
- Set-up: Liver and brain fragments were removed and processed for enzymatic activity determination; from tissue; species or system male NMRI mice
- setupConditions: remaining enzymatic activity vs controls, 1 mg/kg intra-tracheal instillation, sacrificed after 8 h
Structures can show the parent of a compound that is named as a salt.
Items are presented alongside their recorded FAAH Activity - Brain itc (% C).
Return type: number; implicit unit % C.

// known answers, use as guide
CN(C(=O)n1cnc(-c2cccc(OS(N)(=O)=O)c2)c1)C1CCN(Cc2ccccc2)CC1 [Example 7, hydrochloride] | 87.2
CN(C(=O)n1cnc(-c2cccc(C(N)=O)c2)c1)C1CCN(c2ccccc2O)CC1 [Example 37, hydrochloride] | 110.2
COc1ccccc1CN1CCC(N(C)C(=O)n2cnc(-c3cccc(C(N)=O)c3)c2)CC1 [Example 38, hydrochloride] | 96.5

Provide FAAH (Mus musculus) FAAH Activity - Brain itc (% C) reading for CN(C(=O)n1cnc(-c2cccc(C(N)=O)c2)c1)C1CCN(Cc2ccccc2O)CC1 [Example 36, hydrochloride] .
94.4

Provide FAAH Activity - Brain itc (% C), system FAAH (Mus musculus), entry CN(C(=O)n1cnc(-c2cccc(OS(N)(=O)=O)c2)c1)C1CCN(c2ccccc2)CC1 [Example 6, hydrochloride]
82.1

Report value only: FAAH Activity - Brain itc (% C), FAAH (Mus musculus), CN(C(=O)n1cnc(-c2cccc(OS(N)(=O)=O)c2)c1)C1CCN(Cc2ccc3c(c2)OCO3)CC1 [Example 30, hydrochloride]
107.1

Taken from patent US20160166560A1.
